The origin of these recorded values is patent US5314887A.

Tested on: guinea pig left atria
assay.notes: Positive inotropic effect in guinea pig left atria
test.conditions: Cavia porcellus; relative to Bay K8644, expressed in percent; read-out: Intrinsic Activity: ratio of the maximum effect of the test compound to that of Bay K8644
Item-by-item account of Emax
The answer is to be given in %; state only the numeric part.

Illustrative cases are given below, each with its answer.
COC(=O)C1=C(N)NC(C)=C([N+](=O)[O-])C1c1ccccc1SCCCCN1CCN(c2ncccn2)CC1 (centres unmarked) [Example 6] ... 113
COC(=O)C1=C(N)NC(C)=C([N+](=O)[O-])C1c1ccccc1SCCCCCN1CCN(c2ccccc2OC)CC1 (centres unmarked) [Example 11] ... 112
COC(=O)C1=C(N)NC(C)=C([N+](=O)[O-])C1c1ccccc1[S+]([O-])CCCCN1CCC(C(=O)c2ccc(F)cc2)CC1 (centres unmarked) [Example 9] ... 56
COC(=O)C1=C(N)NC(C)=C([N+](=O)[O-])C1c1ccccc1OCCCCCN1CCN(c2ncccn2)CC1 (centres unmarked) [Example 3] ... 170
COC(=O)C1=C(N)NC(C)=C([N+](=O)[O-])C1c1ccccc1[S+]([O-])CCCN1CCN(c2ccccc2OC)CC1 (centres unmarked) [Example 12] ... 35

Q: Fill blank: measured Emax of the compound COC(=O)C1=C(N)NC(C)=C([N+](=O)[O-])C1c1ccccc1[S+]([O-])CCCCN1CCN(c2ccccc2OC)CC1 (centres unmarked) [Example 2] is ____.
Result: 90

Q: Recorded Emax for COC(=O)C1=C(N)NC(C)=C([N+](=O)[O-])C1c1ccccc1[S+]([O-])CCCCCN1CCN(c2ccccc2OC)CC1 (centres unmarked) [Example 13] , please?
Result: 119
